Literature roundup of MERTK (Homo sapiens, UniProt Q12866) data, read-out pIC50.
pIC50: −log10 of the molar value.

Below: 5 compounds and their reported pIC50.
* COc1cc2nccc(Oc3ccc(NC(=O)c4nn(CC5CCOCC5)cc(-c5ccc(C)cc5)c4=O)nc3)c2cc1OC | > 9.00
* CN1CCN(Cc2ccc(-c3cccc(NC(=S)N4CC[C@@H](NC(=O)c5cc(-c6cnn(C)c6)cnc5N)C4)c3)cc2)CC1 | 7.00 to 8.00
* Nc1ncc(-c2ccc(S(N)(=O)=O)cc2)cc1C(=O)N[C@@H]1CCN(C(=O)c2ccc(-c3ccccc3Cl)cc2)C1 | 7.00 to 8.00
* Cn1cc(-c2cnc(N)c(C(=O)N[C@@H]3CCN(C(=O)c4ccc(-c5ccc(F)cc5Cl)cc4Cl)C3)c2)cn1 | < 6.00
* CCOc1ccn(-c2ccc(F)cc2)c(=O)c1C(=O)Nc1ccc(Oc2ccnc3cc(OCC(C)C)c4c(c23)OCCO4)c(F)c1 | ≥ 7.30

get_value(item= `O=C(Nc1ccc(Oc2ccnc(NC(=O)C3CC3)c2)cn1)c1c2n(n(-c3ccccc3)c1=O)CCC2` , readout=pIC50) returns 8.10

Data point: `Cn1cc(-c2cnc(N)c(C(=O)N[C@@H]3CCN(C(=O)c4ccc(-c5ccc(CO)cc5)cc4)C3)c2)cn1` ; pIC50 = 6.00 to 7.00
